# Test system: HCI01 (cells of a triple-negative basal-like breast cancer xenograft)
# test: cell viability (% of vehicle); higher = less cytotoxic;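 further: PDX cells carrying CMV promoter-driven luciferase, viability read as total photon flux per second by IVIS imaging following D-luciferin, vehicle control 0.1% DMSO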
# settings: 10 µM; 72 h
assay readout: cell viability
Reply: number alone, nothing else.

Solved cases (4 shown):
- molecule: "CC(=O)O.C[C@H](N)C(=O)O.NCCCC[C@H](N)C(=O)O.N[C@@H](CCC(=O)O)C(=O)O.N[C@@H](Cc1ccc(O)cc1)C(=O)O [glatiramer acetate]"
  assay readout: "cell viability"
  value: 94.3
- molecule: "O=C([O-])CCCc1ccccc1.[Na+] [Sodium Phenylbutyrate]"
  assay readout: "cell viability"
  value: 122
- molecule: "Cc1ccc(C)c(OCCCC(C)(C)C(=O)O)c1 [Gemfibrozil]"
  assay readout: "cell viability"
  value: 99.9
- molecule: "CCCNC(=O)NS(=O)(=O)c1ccc(Cl)cc1 [Chlorpropamide]"
  assay readout: "cell viability"
  value: 121

Form: molecule = Nc1nc2[nH][nH]nc-2c(=O)n1 [Azaguanine-8] ; cell viability = 158

---

# Test system: HCI11 (cells of an ER-positive luminal breast cancer xenograft)
# test: cell viability (% of vehicle); higher = less cytotoxic
# settings: 10 µM; 72 h
hey, just use T if measured cell viability is less than 100, otherwise F

Worked set:
- compound: "Cc1c(F)cc(C(=O)NC2CC2)cc1-c1ccc(C(=O)NCC(C)(C)C)cn1 [Losmapimod]"
  class assignment: "T"
- compound: "O=C(NN=Cc1ccc([N+](=O)[O-])o1)c1ccc(O)cc1 [Nifuroxazide]"
  class assignment: "T"
- compound: "C#C[C@]1(O)CC[C@H]2[C@@H]3CCC4=CC(=O)CC[C@@H]4[C@H]3C(=C)C[C@@]21CC [Etonogestrel]"
  class assignment: "T"
- compound: "CC1(O)CC(c2nc(-c3ccc4ccc(-c5ccccc5)nc4c3)c3c(N)nccn23)C1 (stereo not drawn) [Linsitinib]"
  class assignment: "T"
- compound: "CN1CCN(C2=c3ccccc3=Nc3ccc(Cl)cc3N2)CC1 [Clozapine]"
  class assignment: "T"

Q) Record O=c1c(-c2ccc(O)cc2)coc2cc(O)ccc12 [Daidzein] : is its cell viability strictly below 100?
A) F

Q) Record CNC(=O)C(NC(=O)C(CC(C)C)C(O)C(=O)NO)C(C)(C)C (stereo not drawn) [Marimastat] : is its cell viability strictly below 100?
A) F

Q) Record c1ccc2[nH]c(-c3cscn3)nc2c1 [Thiabendazole] : is its cell viability strictly below 100?
A) F

Q) Record CCOC(=O)C1=C(COCCN)NC(C)=C(C(=O)OC)C1c1ccccc1Cl.O=S(=O)(O)c1ccccc1 (stereo not drawn) [Amlodipine Besylate] : is its cell viability strictly below 100?
A) F

Q) Record CN(C)CCCN1c2ccccc2Sc2ccc(Cl)cc21.Cl [Chlorpromazine HCl] : is its cell viability strictly below 100?
A) T

Q) Record CN(C)C(=O)NC1CCC(CCN2CCN(c3cccc(Cl)c3Cl)CC2)CC1 (stereo not drawn) [Cariprazine] : is its cell viability strictly below 100?
A) T

Q) Record COc1ccc(-n2nc(C(N)=O)c3c2C(=O)N(c2ccc(N4CCCCC4=O)cc2)CC3)cc1 [Apixaban] : is its cell viability strictly below 100?
A) F

Q) Record CN1C2CCC1CC(OC(c1ccccc1)c1ccccc1)C2.CS(=O)(=O)O (stereo not drawn) [Benztropine mesylate] : is its cell viability strictly below 100?
A) T

Q) Record CC1CCN(C(=O)CC#N)CC1N(C)c1ncnc2[nH]ccc12 (stereo not drawn) : is its cell viability strictly below 100?
A) F
